Test system: CP262
Test: qHTS profiling for inhibitors of Plasmodium falciparum proliferation (AID 504749); also: nearly all actives have a fitted effect of over 60% in size
Conditions: P. falciparum in erythrocytes, SYBR Green DNA, 72 h; series mostly up to 28.7 µM
Results filed as inconclusive are left out. Calls of active or inactive are those of the source. Calls follow the shape of the dose curve; as a rule, active = well fitted inhibition curve with a large enough effect; inconclusive = small, poorly fitted or top-dose-only effect; inactive = flat fitted curve, though single readings scatter.
Just give me one of these, please: yes (1) for active, no (0) for inactive

Lab log entry: O=C1[C@H]2CCCC[C@H]2C(=O)N1CCCCN1CCN(c2nsc3ccccc23)CC1 — outcome as called in the assay?
no (0)

Lab log entry: Cc1cc(=O)n(-c2ccccc2)n1C — outcome as called in the assay?
no (0)

Lab log entry: CCN(CC)C(=O)/C(C#N)=C/c1cc(O)c(O)c([N+](=O)[O-])c1 — outcome as called in the assay?
no (0)

Lab log entry: Nc1ccc(C(=O)O)cc1 — outcome as called in the assay?
no (0)

Lab log entry: O=C1OC(c2ccc(O)cc2)(c2ccc(O)cc2)c2ccccc21 — outcome as called in the assay?
no (0)

Lab log entry: CCN(CC)CCNC(=O)COc1ccc(Cl)cc1 — outcome as called in the assay?
no (0)

Lab log entry: C#C[C@]1(OC(C)=O)CC[C@H]2[C@@H]3CCC4=C[C@@H](OC(C)=O)CC[C@@H]4[C@H]3CC[C@@]21C — outcome as called in the assay?
no (0)

Lab log entry: CCCCCCCCCCCCCCNCCO — outcome as called in the assay?
no (0)

Lab log entry: CCCCCCCCCCCCCCCCOP(=O)([O-])OCC[N+](C)(C)C — outcome as called in the assay?
no (0)

Lab log entry: O=C(CCN1CCC(c2ccccc2)C1)c1ccc2c(c1)OCCO2 (stereo not given) — outcome as called in the assay?
no (0)

Lab log entry: CCCCOc1ccc(C(=O)CCN2CCCCC2)cc1 — outcome as called in the assay?
no (0)

Lab log entry: CC(=O)Nc1c(I)cc(I)c(C(=O)O)c1I — outcome as called in the assay?
no (0)

Lab log entry: CC1(C)CCC(NC(=O)[C@@H](N)CCC(=O)O)CC1 — outcome as called in the assay?
no (0)

Lab log entry: COc1cc(NS(C)(=O)=O)ccc1Nc1c2ccccc2nc2ccccc12 — outcome as called in the assay?
yes (1)

Lab log entry: NC(=O)C(=O)N/N=C/c1ccc([N+](=O)[O-])o1 — outcome as called in the assay?
no (0)

Lab log entry: CCN1CCC[C@H]1CNC(=O)c1c(OC)ccc(Br)c1OC — outcome as called in the assay?
no (0)

Lab log entry: C[C@]12CC[C@@H]3c4ccc(O)cc4CC[C@H]3[C@@H]1CC[C@@H]2O — outcome as called in the assay?
no (0)

Lab log entry: CCN(CC)C(=O)N1CCN(C)CC1 — outcome as called in the assay?
no (0)

Lab log entry: CCCCc1nc(Cl)c(CO)n1Cc1ccc(-c2ccccc2-c2nn[nH]n2)cc1 — outcome as called in the assay?
no (0)

Lab log entry: C=CCc1ccc(O)c(OC)c1 — outcome as called in the assay?
no (0)

Lab log entry: Nc1ccc(C(=O)Nc2ccccc2N)cc1 — outcome as called in the assay?
no (0)

Lab log entry: CC(C)(C(=O)c1cccnc1)c1cccnc1 — outcome as called in the assay?
no (0)

Lab log entry: N[C@H](Cc1c[nH]c2ccccc12)C(=O)O — outcome as called in the assay?
no (0)

Lab log entry: O=C(COc1ccc(Cl)cc1)N1CCN(Cc2ccc3c(c2)OCO3)CC1 — outcome as called in the assay?
no (0)

Lab log entry: CCN(CCCc1ccccc1)CCCc1ccccc1 — outcome as called in the assay?
no (0)
